- System Under Test: Sodium/glucose cotransporter 2 (Homo sapiens)
- Assay Procedure: Inhibition of human SGLT2 expressed in xenopus oocytes assessed as inhibition of [14C]AMG uptake
- Assay type: cell-based, Oocyte
Attribute Measured: EC50 (nM)
Answer in nM, number only, no unit symbol.

## Input May I ask what EC50 has been recorded for `Cc1cc(O)c(C(=O)CCc2ccc3occc3c2)c(O[C@@H]2O[C@H](CO)[C@@H](O)[C@H](O)[C@H]2O)c1` ?
## Output 5.2

---

- System Under Test: Sodium/glucose cotransporter 1 (Homo sapiens, UniProt P13866)
- Sequence (P13866 whole entry): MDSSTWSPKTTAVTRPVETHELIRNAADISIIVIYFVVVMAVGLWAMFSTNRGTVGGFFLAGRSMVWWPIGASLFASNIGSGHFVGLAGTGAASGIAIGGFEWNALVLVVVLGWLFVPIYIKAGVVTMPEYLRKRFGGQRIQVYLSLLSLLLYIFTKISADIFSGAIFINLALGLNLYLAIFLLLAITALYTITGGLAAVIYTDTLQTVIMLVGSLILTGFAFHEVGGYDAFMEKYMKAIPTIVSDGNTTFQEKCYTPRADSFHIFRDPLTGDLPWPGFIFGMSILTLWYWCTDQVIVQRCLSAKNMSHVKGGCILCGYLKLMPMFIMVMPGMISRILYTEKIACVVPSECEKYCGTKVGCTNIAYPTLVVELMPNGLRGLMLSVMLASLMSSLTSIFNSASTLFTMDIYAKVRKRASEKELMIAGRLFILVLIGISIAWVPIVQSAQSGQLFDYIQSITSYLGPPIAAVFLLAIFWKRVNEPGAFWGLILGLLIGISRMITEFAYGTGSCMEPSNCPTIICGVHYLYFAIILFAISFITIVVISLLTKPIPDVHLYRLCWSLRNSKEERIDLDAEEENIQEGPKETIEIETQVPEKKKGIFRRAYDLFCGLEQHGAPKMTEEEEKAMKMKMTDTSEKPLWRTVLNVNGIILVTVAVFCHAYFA
- Assay Procedure: Inhibition of full length N-terminal HA-tagged human SGLT1 expressed in HEK293 cells assessed as inhibition of [14C]AMG uptake
Attribute Measured: pIC50
# reply with the number alone; pIC50 is -log10 of concentration in mol/L

## Input May I ask what pIC50 has been recorded for `COc1ccc(Cc2cc([C@H]3O[C@@H](SC)[C@H](O)[C@@H](O)[C@@H]3O)ccc2Cl)cc1` ?
## Output 7.80

---

- System Under Test: Sodium/glucose cotransporter 2 (Homo sapiens)
- Assay Procedure: Inhibition of full length N-terminal HA-tagged human SGLT2 expressed in HEK293 cells assessed as inhibition of [14C]AMG uptake
- Assay type: cell-based
Attribute Measured: IC50 (nM)
Answer in nM, number only, no unit symbol.

## Input May I ask what IC50 has been recorded for `COc1ccc(Cc2cc([C@H]3O[C@@H](SC)[C@H](O)[C@@H](O)[C@@H]3O)ccc2Cl)cc1` ?
## Output 2.1

---

- System Under Test: Sodium/glucose cotransporter 2 (Homo sapiens)
- Sequence (P31639 whole entry): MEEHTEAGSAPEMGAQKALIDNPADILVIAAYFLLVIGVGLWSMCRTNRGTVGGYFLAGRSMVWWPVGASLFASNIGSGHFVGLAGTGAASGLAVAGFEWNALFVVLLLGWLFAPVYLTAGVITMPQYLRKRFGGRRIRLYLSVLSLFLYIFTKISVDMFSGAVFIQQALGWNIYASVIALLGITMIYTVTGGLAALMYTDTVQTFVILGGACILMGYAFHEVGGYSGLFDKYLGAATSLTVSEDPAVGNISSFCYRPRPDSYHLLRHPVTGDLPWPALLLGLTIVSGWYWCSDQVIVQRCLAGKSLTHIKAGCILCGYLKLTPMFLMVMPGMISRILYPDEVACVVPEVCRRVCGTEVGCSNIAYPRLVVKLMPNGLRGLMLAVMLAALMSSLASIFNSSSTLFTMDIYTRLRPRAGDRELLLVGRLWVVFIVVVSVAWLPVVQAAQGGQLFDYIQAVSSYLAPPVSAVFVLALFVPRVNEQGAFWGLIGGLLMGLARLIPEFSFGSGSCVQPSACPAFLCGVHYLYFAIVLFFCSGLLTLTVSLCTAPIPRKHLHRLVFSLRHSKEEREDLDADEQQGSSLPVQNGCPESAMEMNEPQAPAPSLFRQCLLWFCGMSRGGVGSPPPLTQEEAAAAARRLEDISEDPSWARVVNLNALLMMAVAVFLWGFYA
- Assay Procedure: Inhibition of human SGLT2 expressed in CHO cells assessed as inhibition of [14C] labeled AMG accumulation incubated for 15 mins
- Type: cell-based
Threshold-based label: EC50 under 200 nM gives t, EC50 not under 200 nM gives f.

## Input Is it true that EC50 reported for `CC(=O)NNC[C@H]1O[C@@H](n2cc(Cc3ccc(C4CC4)cc3)c3c(Cl)cccc32)[C@H](O)[C@@H](O)[C@@H]1O` is less than 200 nM?
## Output t

## Input Is it true that EC50 reported for `CO/N=C/[C@H]1O[C@@H](n2cc(Cc3ccc(C4CC4)cc3)c3c(Cl)cccc32)[C@H](O)[C@@H](O)[C@@H]1O` is less than 200 nM?
## Output f

## Input Is it true that EC50 reported for `CONC[C@H]1O[C@@H](n2cc(Cc3ccc(C4CC4)cc3)c3c(Cl)cccc32)[C@H](O)[C@@H](O)[C@@H]1O` is less than 200 nM?
## Output f

## Input Is it true that EC50 reported for `O=C(N/N=C/[C@H]1O[C@@H](n2cc(Cc3ccc(C4CC4)cc3)c3c(Cl)cccc32)[C@H](O)[C@@H](O)[C@@H]1O)c1ccccc1` is less than 200 nM?
## Output f

## Input Is it true that EC50 reported for `COC(=O)NNC[C@H]1O[C@@H](n2cc(Cc3ccc(C4CC4)cc3)c3c(Cl)cccc32)[C@H](O)[C@@H](O)[C@@H]1O` is less than 200 nM?
## Output t

## Input Is it true that EC50 reported for `O/N=C/[C@H]1O[C@@H](n2cc(Cc3ccc(C4CC4)cc3)c3c(Cl)cccc32)[C@H](O)[C@@H](O)[C@@H]1O` is less than 200 nM?
## Output f
